subject-of-test: canine FcRn (FcRn large subunit with canine beta-2-microglobulin) (canine)
protocol-notes: SPR pH 6.0, IgG coupled to CM5, FcRn 50-800 nM
parameter: koff (s⁻¹)

INSERT INTO assay_data (binder, output_unit, experimental_result) VALUES
  ('anti-NGF canine IgGB antibody, Fc variant A426H (antibody, part only; not given: Anti-NGF variable domains, not shown: another chain or arm of the molecule; small tags and cut ends) Fc: APEMLGGPSVFIFPPKPKDTLLIARTPEVTCVVVDLDPEDPEVQISWFVDGKQMQTAKTQPREEQFNGTYRVVSVLPIGHQDWLKGKQFTCKVNNKALPSPIERTISKARGQAHQPSVYVLPPSREELSKNTVSLTCLIKDFFPPDIDVEWQSNGQQEPESKYRTTPPQLDEDGSYFLYSKLSVDKSRWQRGDTFICHVMHEALHNHYTQESLSHSPGK', 's⁻¹', 0.124),
  ('anti-NGF canine IgGB antibody, Fc variant A426H + D312P (antibody, part only; not given: Anti-NGF variable domains, not shown: another chain or arm of the molecule; small tags and cut ends) Fc: APEMLGGPSVFIFPPKPKDTLLIARTPEVTCVVVDLDPEDPEVQISWFVDGKQMQTAKTQPREEQFNGTYRVVSVLPIGHQPWLKGKQFTCKVNNKALPSPIERTISKARGQAHQPSVYVLPPSREELSKNTVSLTCLIKDFFPPDIDVEWQSNGQQEPESKYRTTPPQLDEDGSYFLYSKLSVDKSRWQRGDTFICHVMHEALHNHYTQESLSHSPGK', 's⁻¹', 0.0547),
  ('anti-NGF canine IgGB antibody, Fc variant N434Y (antibody, part only; not given: Anti-NGF variable domains, not shown: another chain or arm of the molecule) Fc: APEMLGGPSVFIFPPKPKDTLLIARTPEVTCVVVDLDPEDPEVQISWFVDGKQMQTAKTQPREEQFNGTYRVVSVLPIGHQDWLKGKQFTCKVNNKALPSPIERTISKARGQAHQPSVYVLPPSREELSKNTVSLTCLIKDFFPPDIDVEWQSNGQQEPESKYRTTPPQLDEDGSYFLYSKLSVDKSRWQRGDTFICAVMHEALHYHYTQESLSHSPGK', 's⁻¹', 0.0181),
  ('anti-NGF canine IgGB antibody, Fc variant N434R + T286Y (antibody, part only; not given: anti-NGF variable domains and light chain, not shown: another chain or arm of the molecule) Fc: APEMLGGPSVFIFPPKPKDTLLIARTPEVTCVVVDLDPEDPEVQISWFVDGKQMQYAKTQPREEQFNGTYRVVSVLPIGHQDWLKGKQFTCKVNNKALPSPIERTISKARGQAHQPSVYVLPPSREELSKNTVSLTCLIKDFFPPDIDVEWQSNGQQEPESKYRTTPPQLDEDGSYFLYSKLSVDKSRWQRGDTFICAVMHEALHRHYTQESLSHSPGK', 's⁻¹', 0.0221);

Origin of values: patent US20240327497A1
